- MEASUREMENT TARGET: calbindin-activated IMPase (Homo sapiens, UniProt P05937)
- Sequence (P05937 1-261): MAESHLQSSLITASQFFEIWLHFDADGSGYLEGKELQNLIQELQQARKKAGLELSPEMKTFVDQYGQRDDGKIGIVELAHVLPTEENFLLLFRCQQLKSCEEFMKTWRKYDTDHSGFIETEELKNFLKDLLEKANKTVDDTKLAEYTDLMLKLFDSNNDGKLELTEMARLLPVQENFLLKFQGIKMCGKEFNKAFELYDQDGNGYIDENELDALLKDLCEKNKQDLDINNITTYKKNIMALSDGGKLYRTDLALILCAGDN
- ASSAY EXPLANATION: IMPase activity in mouse brain crude homogenate in the presence of recombinant human calbindin and short peptides (malachite green phosphate assay)
- Type: biochemical
- Set-up: from tissue; host or cells: mouse brain crude homogenate; key: fraction of mean control value in each run
- CONDITIONS USED: 20 μM human recombinant calbindin, 10 μM peptide, values normalized to the mean of the control values in each run
Where no end group is shown, it is not given here.
MEASURE NAME: IMPase Activity, nean ± SD

IAAAYP [Peptide 8]
2.3
KHIKPS [Peptide 7]
1.4
IKEKYP [Peptide 1, hexapeptide identical to residues 58-63 of IMPase]
1.2

I. Ile-Lys-Glu-Lys-Tyr (IKEKY; Peptide derived from the segment including residues 55-66 of IMPase) [Peptide 9]
II. IAEKYP [Peptide 4]
Which entry has a larger number for IMPase Activity, nean ± SD, I or II ? Reply briefly: the label of your chosen item.
I

---

- MEASUREMENT TARGET: calbindin-activated IMPase (Homo sapiens, UniProt P05937)
- Sequence (P05937 1-261): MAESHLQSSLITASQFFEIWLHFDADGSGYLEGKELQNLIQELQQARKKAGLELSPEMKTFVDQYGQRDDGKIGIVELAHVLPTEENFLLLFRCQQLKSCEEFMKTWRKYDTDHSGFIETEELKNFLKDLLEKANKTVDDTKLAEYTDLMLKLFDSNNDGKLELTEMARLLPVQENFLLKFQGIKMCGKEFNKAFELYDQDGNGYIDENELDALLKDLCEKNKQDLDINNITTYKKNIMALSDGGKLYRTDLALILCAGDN
- ASSAY EXPLANATION: IMPase activity in mouse brain crude homogenate in the presence of recombinant human calbindin and short peptides (malachite green phosphate assay)
- Format: biochemical
- Design: from tissue; host or cells: mouse brain crude homogenate; key: fraction of mean control value in each run
- CONDITIONS USED: 20 μM human recombinant calbindin, 10 μM peptide, values normalized to the mean of the control values in each run
Where no end group is shown, it is not given here.
MEASURE NAME: IMPase Activity, nean ± SD

Example substances with recorded IMPase Activity, nean ± SD:
SYEHKP [Peptide 5]
1.4
IKAKYP [Peptide 2]
0.9

a. IKEAYP [Peptide 3]
b. IAEAYP [Peptide 6]
From the recorded data, which exceeds the other in IMPase Activity, nean ± SD: a or b ? // caller expects the label of the chosen entry
b
(b: 2.5, a: 1.0)
